Reported values of inhibition of growth at 10 µM for individual entries
- System: UACC-62
- MEASUREMENT_NOTES: Growth inhibition of Homo sapiens (human) UACC62 cells at 10 uM after 48 hr by SRB assay
- Format: functional
- MEASUREMENT_CONTEXT: UACC-62, 48 h, read-out: GI

# SMILES_TEXT, inhibition of growth at 10 µM, %
data = [
    ("COc1ccc(OC)c(/C=C/C(=O)N/N=C/c2ccccc2)c1", 39),
    ("COc1ccc(OC)c(/C=C/C(=O)N/N=C/c2ccc(Cl)cc2)c1", 57.9),
    ("COc1ccc(OC)c(/C=C/c2nnc(S)n2-c2ccc(Cl)cc2)c1", 57.2),
    ("COc1ccc(OC)c(/C=C/c2nnc(SC)n2-c2ccc(Cl)cc2)c1", 50.5),
]
